Experiment: Phase 1 plasma pharmacokinetics
Type: in vivo, human
Details: human, plasma, oral, 80 mg, Cmax, Mean ± SD, abexinostat continuous administration (BID, 4-h interval) on C1D1, 80 mg (n = 4)

# smiles.record, Cmax
data = [
    ("CN(C)Cc1c(C(=O)NCCOc2ccc(C(=O)NO)cc2)oc2ccccc12", "128 ng/mL"),
]

###

Test: Phase 1 plasma pharmacokinetics
Type: in vivo, human
Settings: human, plasma, po, 40 mg

# compound, value.unit, MRT last
records = [
    ("CN(C)Cc1c(C(=O)NCCOc2ccc(C(=O)NO)cc2)oc2ccccc12 [abexinostat, Abexinostat]", "h", 2.8),
]

Origin of measurements: paper PMC12123727
